// molecules with pIC50 on Aurora kinase A (Homo sapiens, UniProt O14965), multi-source literature
Sequence (O14965 whole entry): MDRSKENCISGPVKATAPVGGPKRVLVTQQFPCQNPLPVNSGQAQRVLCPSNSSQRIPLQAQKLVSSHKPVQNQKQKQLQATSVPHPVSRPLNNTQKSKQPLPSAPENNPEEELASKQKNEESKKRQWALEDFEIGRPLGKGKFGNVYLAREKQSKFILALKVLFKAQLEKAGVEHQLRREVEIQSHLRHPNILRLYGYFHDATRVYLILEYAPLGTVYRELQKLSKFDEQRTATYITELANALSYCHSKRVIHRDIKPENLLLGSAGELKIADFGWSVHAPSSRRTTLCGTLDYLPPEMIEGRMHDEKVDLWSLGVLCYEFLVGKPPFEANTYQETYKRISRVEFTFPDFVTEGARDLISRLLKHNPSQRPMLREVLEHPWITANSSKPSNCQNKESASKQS
pIC50: −log10 of the molar value.

These recorded examples may help you get a feel for the data.
> print(dat)
                         chemical.structure  readout.value
1  COC(=O)c1cncc(/C=C/c2c[nH]nc2-c2nc3ccc(OC)cc3[nH]2)c1         < 4.00
2  COc1cc(Br)cc2[nH]cc(-c3cnc(-c4ccc(Br)[nH]4)o3)c12         < 5.00

Prompt line: What pIC50 appears in the records for this molecule with Aurora kinase A (Homo sapiens, UniProt O14965)? COc1ccc2c(c1)[C@]1(C[C@H]1c1ccc3c(-c4ccc(N5CCN(C)CC5)cc4)n[nH]c3c1)C(=O)N2
Response line: < 6.00
